target under test: T1, soluble human RGMa (human, UniProt Q96B86 48-422, limits assumed)
T1 construct: Soluble antigen in BIAcore; also called huRGMa; repulsive guidance molecule A
T1 sequence (looked up): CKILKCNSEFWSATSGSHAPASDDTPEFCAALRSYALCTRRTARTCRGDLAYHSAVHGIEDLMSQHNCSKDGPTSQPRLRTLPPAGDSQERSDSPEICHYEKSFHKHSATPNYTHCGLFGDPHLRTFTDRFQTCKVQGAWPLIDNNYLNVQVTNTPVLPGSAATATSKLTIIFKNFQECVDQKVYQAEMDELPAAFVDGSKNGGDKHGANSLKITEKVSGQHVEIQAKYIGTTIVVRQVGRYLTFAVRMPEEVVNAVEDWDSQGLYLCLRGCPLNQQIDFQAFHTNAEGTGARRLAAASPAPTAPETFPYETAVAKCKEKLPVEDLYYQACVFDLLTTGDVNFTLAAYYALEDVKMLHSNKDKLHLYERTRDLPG
assay remarks: SPR (BIAcore);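 note: Anti-HJV antibodies tested for binding against soluble human RGMa by surface plasmon resonance on a BIAcore instrument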
measure name: kon (M⁻¹ s⁻¹)
API: value field is a number in M⁻¹ s⁻¹; no unit string.

Below, 5 binders whose answers are already recorded.
binder: hHA-007 (antibody, human IgG1, kappa, L234A L235A, V domains shown, hIgG1 L234A, L235A, kappa) VH: EVQLVESGGGLVQPGGSLRLSCAASGFTFSNYGMNWIRQAPGKGLEWIGMIYYDSSDKHYADSVKGRFTISRDNSKNTLYLQMNSLRAEDTAVYYCAKGTTPDVWGQGTMVTVSS VL: DVVLTQSPLSLPVTLGQPASISCRSSQSLEESDGYTFLHWFQQRPGQSPRLLIYEVSNRFSGVPDRFSGSGSGTDFTLKISRVEAEDVGVYYCFQATHDPVTFGQGTKLEIKR
kon (M⁻¹ s⁻¹): 590000
--
binder: hHA-011 (antibody, human IgG1, kappa, L234A L235A, V domains shown, hIgG1 L234A, L235A, kappa) VH: EVQLVESGGGLVQPGGSLRLSCAASGFTFSNYGMNWVRQAPGKGLEWIGMIYYDSSEKHYADSVKGRFTISRDNSKNTLYLQMNSLRAEDTAVYYCAKGSTPDYWGQGTMVTVSS VL: DVVLTQSPLSLPVTLGQPASISCRSSQSLEDSDGGTFLEWFQQRPGQSPRLLIYDVSSRFSGVPDRFSGSGSGTDFTLKISRVEAEDVGVYYCFQATHDPLSFGQGTKLEIKR
kon (M⁻¹ s⁻¹): 930000
--
binder: hHA-002 (antibody, human IgG1, kappa, L234A L235A, V domains shown, hIgG1 L234A, L235A, kappa) VH: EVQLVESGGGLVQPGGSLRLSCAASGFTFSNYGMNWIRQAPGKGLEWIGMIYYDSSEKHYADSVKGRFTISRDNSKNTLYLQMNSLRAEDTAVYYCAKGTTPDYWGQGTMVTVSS VL: DVVLTQSPLSLPVTLGQPASISCRSSQSLETSDGDTFLEWFQQRPGQSPRLLIYEVSSRFSGVPDRFSGSGSGTDFTLKISRVEAEDVGVYYCMQVTHDPLTFGQGTKLEIKR
kon (M⁻¹ s⁻¹): 1.4e+06
--
binder: hHA-004 (antibody, human IgG1, kappa, L234A L235A, V domains shown, hIgG1 L234A, L235A, kappa) VH: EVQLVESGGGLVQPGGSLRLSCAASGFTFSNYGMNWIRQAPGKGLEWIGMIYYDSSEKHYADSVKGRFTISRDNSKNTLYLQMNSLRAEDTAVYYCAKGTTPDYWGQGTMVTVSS VL: DVVLTQSPLSLPVTLGQPASISCRSSQSLESSDGDTFLEWFQQRPGQSPRLLIYDVSTRFSGVPDRFSGSGSGTDFTLKISRVEAEDVGVYYCFQVTHDPVTFGQGTKLEIKR
kon (M⁻¹ s⁻¹): 1.4e+06
--
binder: hHA-010 (antibody, human IgG1, kappa, L234A L235A, V domains shown, hIgG1 L234A, L235A, kappa) VH: EVQLVESGGGLVQPGGSLRLSCAASGFTFSNYGMNWVRQAPGKGLEWIGMIYYDSSEKHYADSVKGRFTISRDNSKNTLYLQMNSLRAEDTAVYYCAKGTTPDKWGQGTMVTVSS VL: DVVLTQSPLSLPVTLGQPASISCRSSQSLEESDGYTFLEWFQQRPGQSPRLLIYEVSHRFSGVPDRFSGSGSGTDFTLKISRVEAEDVGVYYCFQATHDPLTFGQGTKLEIKR
kon (M⁻¹ s⁻¹): 850000

Reported kon for hHA-006 (antibody, human IgG1, kappa, L234A L235A, V domains shown, hIgG1 L234A, L235A, kappa) VH: EVQLVESGGGLVQPGGSLRLSCAASGFTFSYYGMNWIRQAPGKGLEWIGMIYYDSSEKHYADSVKGRFTISRDNSKNTLYLQMNSLRAEDTAVYYCAKGTTPDYWGQGTMVTVSS VL: DVVLTQSPLSLPVTLGQPASISCRSSQSLEDSDGGTFLEWFQQRPGQSPRLLIYDVSSRFSGVPDRFSGSGSGTDFTLKISRVEAEDVGVYYCFQATHDPLTFGQGTKLEIKR : what is it?
1.2e+06

Which kon value is on record for hHA-005 (antibody, human IgG1, kappa, L234A L235A, V domains shown, hIgG1 L234A, L235A, kappa) VH: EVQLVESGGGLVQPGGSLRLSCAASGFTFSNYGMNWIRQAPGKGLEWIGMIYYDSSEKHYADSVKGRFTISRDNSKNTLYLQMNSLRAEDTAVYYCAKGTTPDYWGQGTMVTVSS VL: DVVLTQSPLSLPVTLGQPASISCRSSQSLEESDGYTFLEWFQQRPGQSPRLLIYDVSERFSGVPDRFSGSGSGTDFTLKISRVEAEDVGVYYCFQATYDPLTFGQGTKLEIKR ?
1.9e+06
